growth values by entry
- Test system: HCT-116 colon
- PROTOCOL: NCI-60 one-dose screen, 48 h (100 = growth as untreated, 0 = no growth, -100 = all killed)
- TEST CONTEXT: 10 µM unless noted
- Procedure: Growth inhibition of the HCT-116 human tumor cell line is measured as a screen for anti-cancer activity. Cells are grown in 96 well plates and exposed to the test compound for 48 hours. Compounds are tested at a single concentration, which is 10^-5 M for most compounds. The reported endpoint is percent growth (GI% or GIPRCNT), where numbers from 0 - 100% represent growth inhibition, and numbers from -100% - 0 represent cell death. For example, a value of 40 represents 60% growth inhibition. […]
Compounds without any hit were thinned out: in the full panel of roughly 83,000, 20% have a hit.
Give a bare numeral; the unit % is implied.

[
  {
    "MOLECULE": "CCN(CC)CCOC(COc1cc(C)cc(C)c1)COc1cc(C)cc(C)c1",
    "DISPLAY UNIT": "%",
    "growth": 7.06
  },
  {
    "MOLECULE": "CCCCCCC/C=C/[C@H]1O[C@]2(O)C(=O)C=C3C[C@@H](O[C@@H]4O[C@H](CO)[C@@H](O)C(O)[C@@H]4O)C[C@@H]3[C@H]2C=C1C (stereo not given in full)",
    "DISPLAY UNIT": "%",
    "growth": -45.9
  },
  {
    "MOLECULE": "O=c1nc2n(nc1/C=C/c1ccco1)CC(c1ccc(Cl)cc1)=NN2",
    "DISPLAY UNIT": "%",
    "growth": 99
  },
  {
    "MOLECULE": "C=CCn1c(SCC(=O)Nc2ccc(C(=O)/C=C/c3cc(OC)c(OC)c(OC)c3)cc2)nnc1-c1cc(-c2ccc(S(C)(=O)=O)cc2)nc2ccccc12",
    "DISPLAY UNIT": "%",
    "growth": 27.4
  },
  {
    "MOLECULE": "Nc1nnc(C(=O)c2cnc3n(c2=O)CCCCC3)s1",
    "DISPLAY UNIT": "%",
    "growth": 103
  }
]

Q. Item Clc1ccc(C2CC(c3cccc(Nc4ccncc4)c3)=NN2c2ccc(Cl)cc2)cc1 (stereo not given) has what recorded growth?
A. -73.2

Q. Repeat for the following molecule: C=C(C)[C@H]1CC/C(C)=C/CC[C@]2(C)O[C@H]2CC/C(COC(=O)[C@@H](OC(C)=O)[C@H](NC(=O)c2ccccc2)c2ccccc2)=C\[C@@H]1O
A. 89.6

Q. Repeat for the following molecule: COc1ccc(CC(C)=C(c2ccc(OCCN(C)C)cc2)c2ccc(OCCN(C)C)cc2)cc1
A. 22

Q. Repeat for the following molecule: CC(C)(C)OC(=O)N1C/C(=C\c2ccoc2)C(=O)/C(=C/c2ccoc2)C1
A. 21.7

Q. Repeat for the following molecule: O=C(CN1CCOCC1)Nc1ccc2ncnc(Nc3ccc(Oc4cccc(F)c4)c(Cl)c3)c2c1
A. 73.5

* * *

- Tested on: U251 CNS
- PROTOCOL: NCI-60 one-dose screen, 48 h
- TEST CONTEXT: 10 µM unless noted
About 83,000 compounds went through this panel and 20% of them were active in at least one assay; those are over-represented in the sample as a whole. The source made the active and inactive calls. Rule for the calls: active = growth percent below 10; inactive = the rest.
Output constraint: value belongs to True (active), False (inactive)

Here's what some known entries look like.
[
  {
    "MOLECULE": "N#CSCC1CC(O)(c2ccccc2)C(c2ccccc2)C(c2ccc(F)cc2)O1 (stereo not given)",
    "ASSIGNED CLASS": "False"
  },
  {
    "MOLECULE": "CN1CCN(CCCNc2nccc(-c3c(-c4ccc(F)c(O)c4)nc4sccn34)n2)S1(=O)=O",
    "ASSIGNED CLASS": "False"
  },
  {
    "MOLECULE": "Cn1c(COC(=O)N2CCCCC2)nc2c(N3CCOCC3)nc(-c3ccccc3)nc21",
    "ASSIGNED CLASS": "True"
  },
  {
    "MOLECULE": "COc1cc(-c2cc(=O)oc3cc(O)ccc23)cc(OC)c1OC",
    "ASSIGNED CLASS": "False"
  },
  {
    "MOLECULE": "COc1cc(-c2cc(=O)oc3cc(O)ccc23)c(OC)c2c1OCO2",
    "ASSIGNED CLASS": "False"
  }
]

// next entry
Q. Record request — test call for CC(C)CN(C(=O)c1ccc(Cl)cc1)c1c(N)n(CC(C)C)c(=O)[nH]c1=O
A. False

* * *

- Tested on: BT-549 breast
- PROTOCOL: NCI-60 one-dose screen, 48 h (100 = growth as untreated, 0 = no growth, -100 = all killed)
- TEST CONTEXT: 10 µM unless noted
This is part of a sample that, as a whole, favours compounds with a hit. Of some 83,000 tested, about 20% had one in any assay.
ENDPOINT NAME: growth (%)
Give a bare numeral; the unit % is implied.

[
  {
    "QUERY SMILES": "N#Cc1ccc(-c2ccc3c(c2)NC(=O)/C3=C\\c2ccc[nH]2)cc1",
    "ENDPOINT NAME": "growth",
    "DISPLAY UNIT": "%",
    "OBS VALUE": 24.1
  },
  {
    "QUERY SMILES": "Nc1c(C(=O)Nc2cccc3ccncc23)sc2nc3c(cc12)C(=O)CCC3",
    "ENDPOINT NAME": "growth",
    "DISPLAY UNIT": "%",
    "OBS VALUE": 50.6
  },
  {
    "QUERY SMILES": "O=C(O)C(/C=C/c1ccco1)=N\\Nc1nc(-c2ccc(Cl)cc2)cs1",
    "ENDPOINT NAME": "growth",
    "DISPLAY UNIT": "%",
    "OBS VALUE": 63.8
  },
  {
    "QUERY SMILES": "O=C(CCN1CCCC1)Nc1ccc2c(Nc3ccccc3)c3ccccc3nc2c1",
    "ENDPOINT NAME": "growth",
    "DISPLAY UNIT": "%",
    "OBS VALUE": 41
  }
]

Kindly review the next compound as well.
Q. Item COc1cccc(NC(=O)c2cccc(-c3cc(=O)c4c(OC)c(OC)c(OC)cc4o3)c2)c1 has what recorded growth?
A. 54.2

* * *

- System: MOLT-4 leukemia
- PROTOCOL: NCI-60 one-dose screen, 48 h (100 = growth as untreated, 0 = no growth, -100 = all killed)
- TEST CONTEXT: 10 µM unless noted
- Experimental: Growth inhibition of the MOLT-4 human tumor cell line is measured as a screen for anti-cancer activity. Cells are grown in 96 well plates and exposed to the test compound for 48 hours. Compounds are tested at a single concentration, which is 10^-5 M for most compounds. The reported endpoint is percent growth (GI% or GIPRCNT), where numbers from 0 - 100% represent growth inhibition, and numbers from -100% - 0 represent cell death. For example, a value of 40 represents 60% growth inhibition. […]
This is part of a sample that, as a whole, favours compounds with a hit. Of some 83,000 tested, about 20% had one in any assay. Calls of active or inactive are those of the source. The calls were made as follows: active = growth percent below 10; inactive = the rest.
ENDPOINT NAME: growth

Would you please look over these solved cases?
[
  {
    "QUERY SMILES": "O=C(CN1CCOCC1)Nc1ccc2ncnc(Nc3ccc(OCc4cccc(F)c4)c(Cl)c3)c2c1",
    "growth": "47.9% (inactive)"
  },
  {
    "QUERY SMILES": "CCCCCCCCOC(=O)c1ccc(O)c(OC)c1",
    "growth": "12.9% (inactive)"
  },
  {
    "QUERY SMILES": "Cc1c(C2=CCCCC2)c2ccccn2c1C(=O)c1cccc(S(=O)(=O)N2CCOCC2)c1",
    "growth": "82.6% (inactive)"
  },
  {
    "QUERY SMILES": "C#Cc1cccc(NC(=O)Nc2cccc(N=C=S)c2)c1",
    "growth": "97.8% [8.25 µM] (inactive)"
  }
]

Q. Item CCNC(=S)NNC(=O)c1cc2ccc1CCc1ccc(cc1)CC2 has what recorded growth?
A. 102% (inactive)

Q. Repeat for the following compound: Clc1ccc2c(c1)c(-c1ccccc1)nc1nncn12
A. 96.7% (inactive)

* * *

- System: NCI/ADR-RES ovarian
- PROTOCOL: NCI-60 one-dose screen, 48 h
- TEST CONTEXT: 10 µM unless noted
About 83,000 compounds went through this panel and 20% of them were active in at least one assay; those are over-represented in the sample as a whole. Activity calls are given as the source filed them. The calls were made as follows: active = growth percent below 10; inactive = the rest.
Output constraint: value belongs to true (1) = active, false (0) = inactive

[
  {
    "COMPOUND": "C#CC(=O)Nc1cccc(Nc2nc3c(c(NCc4ccccc4)n2)CCCC3)c1",
    "ASSIGNED CLASS": "true (1)"
  }
]

Q. Record request — test call for COc1ccc(Cc2nc3cc(OC)c(OC)cc3c(=O)[nH]2)cc1
A. false (0)

Q. Repeat for the following compound: O=S(=O)(NCCCNc1nccc(-c2c(-c3ccccc3)nc3occn23)n1)c1ccc(Cl)cc1
A. false (0)

Q. Repeat for the following compound: O=S(=O)(c1cccc(NC2=Nc3cccc4cccc2c34)c1)N1CCCC1
A. false (0)

Taken from PubChem BioAssay (NCI).
